- targetUnderTest: T1, Human BCMA (human, UniProt Q02223 1-54, limits assumed)
- T1 construct: Soluble analyte in SPR; construct not described; also called huBCMA; B-cell maturation antigen
- T1 sequence (looked up): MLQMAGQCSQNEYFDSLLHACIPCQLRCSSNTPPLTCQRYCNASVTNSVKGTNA
- assayProcedure: SPR, IgG immobilised, 37 C
Tag: Fulfilled if measured koff is not below 0.002 s⁻¹, Not fulfilled if it is.

{"binder": "L3.PY/H3.TAQ (antibody, V domains shown, IgG) VH: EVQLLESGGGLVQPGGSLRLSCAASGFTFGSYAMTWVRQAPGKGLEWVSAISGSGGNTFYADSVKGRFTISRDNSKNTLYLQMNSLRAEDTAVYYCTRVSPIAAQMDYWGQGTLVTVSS VL: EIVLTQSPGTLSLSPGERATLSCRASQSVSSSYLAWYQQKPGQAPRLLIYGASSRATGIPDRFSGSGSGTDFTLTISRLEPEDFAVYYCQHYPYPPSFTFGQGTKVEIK", "category": "Not fulfilled"}
{"binder": "L3.PY/L1.AH/H2.HA (antibody, V domains shown, IgG) VH: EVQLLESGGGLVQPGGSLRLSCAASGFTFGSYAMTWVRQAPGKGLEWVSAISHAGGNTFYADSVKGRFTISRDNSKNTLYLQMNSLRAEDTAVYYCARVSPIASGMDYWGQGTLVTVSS VL: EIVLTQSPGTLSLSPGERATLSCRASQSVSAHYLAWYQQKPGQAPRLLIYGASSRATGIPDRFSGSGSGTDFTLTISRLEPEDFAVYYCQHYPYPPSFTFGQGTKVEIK", "category": "Not fulfilled"}
{"binder": "L3.PY/L1.PS/H2.DY (antibody, V domains shown, IgG) VH: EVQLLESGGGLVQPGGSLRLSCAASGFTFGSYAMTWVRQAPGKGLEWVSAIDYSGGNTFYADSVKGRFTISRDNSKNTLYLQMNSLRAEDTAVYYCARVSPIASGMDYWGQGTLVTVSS VL: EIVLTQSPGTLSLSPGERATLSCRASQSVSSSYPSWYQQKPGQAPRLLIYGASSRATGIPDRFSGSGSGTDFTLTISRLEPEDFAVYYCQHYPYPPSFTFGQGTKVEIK", "category": "Fulfilled"}
{"binder": "L3.PY/L1.PS/H3.YA (antibody, V domains shown, IgG) VH: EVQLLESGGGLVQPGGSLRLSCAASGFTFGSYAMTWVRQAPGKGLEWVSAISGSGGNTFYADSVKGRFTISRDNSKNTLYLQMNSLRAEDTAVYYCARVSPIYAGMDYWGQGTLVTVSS VL: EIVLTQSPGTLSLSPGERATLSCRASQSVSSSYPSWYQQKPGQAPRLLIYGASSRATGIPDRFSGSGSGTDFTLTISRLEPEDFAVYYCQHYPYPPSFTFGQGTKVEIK", "category": "Fulfilled"}
{"binder": "L3.PY/L1.AH/H2.DY (antibody, V domains shown, IgG) VH: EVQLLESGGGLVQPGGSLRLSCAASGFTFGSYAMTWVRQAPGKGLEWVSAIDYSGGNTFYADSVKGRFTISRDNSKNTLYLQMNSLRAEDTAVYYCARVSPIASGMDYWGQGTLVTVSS VL: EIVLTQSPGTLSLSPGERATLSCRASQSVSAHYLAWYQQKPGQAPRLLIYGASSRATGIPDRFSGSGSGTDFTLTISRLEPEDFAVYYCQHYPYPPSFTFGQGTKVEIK", "category": "Not fulfilled"}
